# Subject of test: Leishmania donovani DNA topoisomerase IB enzyme (LdTopIB) (Leishmania donovani, UniProt A0A3Q8IHS4+Q8WQM6)
# Sequence (A0A3Q8IHS4 entry or part of it): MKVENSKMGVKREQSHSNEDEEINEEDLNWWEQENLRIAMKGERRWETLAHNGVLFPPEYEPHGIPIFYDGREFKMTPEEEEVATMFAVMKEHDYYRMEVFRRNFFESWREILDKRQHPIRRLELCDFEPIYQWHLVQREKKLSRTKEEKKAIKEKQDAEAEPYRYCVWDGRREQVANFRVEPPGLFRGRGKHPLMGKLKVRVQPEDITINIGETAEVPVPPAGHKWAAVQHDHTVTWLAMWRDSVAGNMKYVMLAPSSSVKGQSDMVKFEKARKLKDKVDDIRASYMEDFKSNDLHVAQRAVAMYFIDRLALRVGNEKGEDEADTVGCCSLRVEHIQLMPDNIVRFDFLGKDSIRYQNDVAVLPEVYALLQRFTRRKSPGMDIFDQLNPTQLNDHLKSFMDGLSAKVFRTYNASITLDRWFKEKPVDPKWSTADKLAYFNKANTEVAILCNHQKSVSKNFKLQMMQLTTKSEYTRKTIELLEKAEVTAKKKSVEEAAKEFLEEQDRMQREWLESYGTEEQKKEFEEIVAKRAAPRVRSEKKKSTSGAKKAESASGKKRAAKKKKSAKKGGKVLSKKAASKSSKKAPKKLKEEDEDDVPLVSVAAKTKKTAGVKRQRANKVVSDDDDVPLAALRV
# Sequence (Q8WQM6 entry or part of it): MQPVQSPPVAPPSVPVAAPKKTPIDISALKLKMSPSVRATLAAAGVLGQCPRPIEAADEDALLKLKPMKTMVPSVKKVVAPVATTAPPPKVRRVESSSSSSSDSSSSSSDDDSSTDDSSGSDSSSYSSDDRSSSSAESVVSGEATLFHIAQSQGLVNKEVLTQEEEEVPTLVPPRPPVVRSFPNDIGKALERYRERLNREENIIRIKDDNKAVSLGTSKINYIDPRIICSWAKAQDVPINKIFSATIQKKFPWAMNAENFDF
# Assay info: Inhibition of the relaxation activity of recombinant LdTopIB (plasmid DNA relaxation assay)
# Format: biochemical
# Cond: relaxation activity, 30 min at 37 °C, 1.56–100 µM; read-out: LdTopIB EC50
Test readout: EC50 (µM)
Record the value in µM, omitting the unit from your answer.

CCCCCCCCCC/C=C\CC/C=C\CCC(OC)C(=O)O (racemic) [compound 1] :: 31

Recorded result, CCCCCCCCCCC#CCCC#CCCC(OC)C(=O)O (racemic) [compound 2, (±)-2-methoxy-5,9-eicosadiynoic acid] , EC50: 22

Recorded result, CCCCCCCCCCCCCC#CCCCC(OC)C(=O)O (racemic) [compound 12, (±)-2-methoxy-6-icosynoic acid] , EC50: 53

----------
# System: Murine Macrophages BALB/c
# Assay info: Toxicity towards murine macrophages
# Format: cell-based
# Cond: Mus musculus, Macrophage
Test readout: IC50 (µM)
Record the value in µM, omitting the unit from your answer.

CCCCCCCCCC/C=C\CC/C=C\CCC(OC)C(=O)O (racemic) :: 110
CC[C@@]1(O)C(=O)OCc2c1cc1n(c2=O)Cc2cc3ccccc3nc2-1 [CPT, Camptothecin, reference compound] :: 0.6

In the following, a different molecule is considered.
Recorded result, CCCCCCCCCCC#CCCC#CCCC(OC)C(=O)O (racemic) [compound 2, (±)-2-methoxy-5,9-eicosadiynoic acid] , IC50: 90

Values were extracted from paper PMC3826128.
